Quick note: these are pKi numbers for system: C-C chemokine receptor type 5 (Homo sapiens, UniProt P51681)
Sequence (P51681 whole entry): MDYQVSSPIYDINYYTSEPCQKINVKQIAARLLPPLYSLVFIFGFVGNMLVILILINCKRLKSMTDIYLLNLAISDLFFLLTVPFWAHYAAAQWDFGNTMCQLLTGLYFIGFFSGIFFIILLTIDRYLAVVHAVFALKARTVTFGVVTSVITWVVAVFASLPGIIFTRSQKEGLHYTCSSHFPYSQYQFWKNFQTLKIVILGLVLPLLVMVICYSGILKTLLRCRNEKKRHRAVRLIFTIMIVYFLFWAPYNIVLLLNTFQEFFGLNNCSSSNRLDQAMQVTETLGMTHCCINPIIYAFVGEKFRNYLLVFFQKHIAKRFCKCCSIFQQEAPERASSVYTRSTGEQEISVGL
Scale note: pKi = -log10(concentration in M).

Cc1ncnc(C)c1C(=O)N1CCC(C)(N2CCC(/C(=N\OC(C)C)c3ccc(Br)cc3)CC2)CC1 ... 8.48

Record CCO/N=C(/c1ccc(Br)cc1)C1CCN(C2(C)CCN(C(=O)c3c(C)nc(C4CC4)nc3C)CC2)CC1 has C-C chemokine receptor type 5 (Homo sapiens, UniProt P51681) pKi equal to 7.60

Record CCO/N=C(/c1ccc(Br)cc1)C1CCN(C2(C)CCN(C(=O)c3c(C)nc(C(C)C)nc3C)CC2)CC1 has C-C chemokine receptor type 5 (Homo sapiens, UniProt P51681) pKi equal to 7.37

Record CCO/N=C(\c1ccc(Br)cc1)C1CCN(C2(C)CCN(C(=O)c3c(C)ncnc3C)CC2)CC1 has C-C chemokine receptor type 5 (Homo sapiens, UniProt P51681) pKi equal to 8.66

Record CCO/N=C(/c1ccc(Br)cc1)C1CCN(C2(C)CCN(C(=O)c3c(C)nc(SC)nc3C)CC2)CC1 has C-C chemokine receptor type 5 (Homo sapiens, UniProt P51681) pKi equal to 8.89

Record CO/N=C(\c1ccc(Br)cc1)C1CCN(C2(C)CCN(C(=O)c3c(C)ncnc3C)CC2)CC1 has C-C chemokine receptor type 5 (Homo sapiens, UniProt P51681) pKi equal to 8.33

Record CCO/N=C(\c1ccc(Br)cc1)C1CCN(C2(C)CCN(C(=O)c3c(Br)c[n+]([O-])cc3Br)CC2)CC1 has C-C chemokine receptor type 5 (Homo sapiens, UniProt P51681) pKi equal to 9.15

Record Cc1ncnc(C)c1C(=O)N1CCC(C)(N2CCC(/C(=N\OCC3CC3)c3ccc(Br)cc3)CC2)CC1 has C-C chemokine receptor type 5 (Homo sapiens, UniProt P51681) pKi equal to 7.96

Record CCO/N=C(\c1ccc(Br)cc1)C1CCN(C2(C)CCN(C(=O)c3c(C)c[n+]([O-])cc3C)CC2)CC1 has C-C chemokine receptor type 5 (Homo sapiens, UniProt P51681) pKi equal to 8.06

Record CCO/N=C(/c1ccc(Br)cc1)C1CCN(C2(C)CCN(C(=O)c3c(C)nc(NC(C)=O)nc3C)CC2)CC1 has C-C chemokine receptor type 5 (Homo sapiens, UniProt P51681) pKi equal to 7.22
